- assay.remarks: Toxicity liver stage against HepG2, at 10uM
- Assay type: cell-based
- Parameters: test concentration 10 uM, cell line HepG2-A16-CD81EGFP
- experimental.context: human, HepG2-A16-CD81EGFP cells; read-out: INHIBITION

{"compound": "COc1c(C2CCCN2CC(=O)Nc2cccnc2)c(C)nn1C (centres undefined)", "unit.label": "%", "cytotoxicity at 10 µM": -2.39}
{"compound": "CN(C)C(=O)CCN1CC(c2ccccc2)(c2ccccc2)CCC1=O", "unit.label": "%", "cytotoxicity at 10 µM": 0.284}
{"compound": "O=C(CCN1CCCCO1)NC1CCCN(CC2CCCCC2)C1 (centres undefined)", "unit.label": "%", "cytotoxicity at 10 µM": 4.21}
{"compound": "c1cncc(CN2CCCn3nnc(CN4CCCCC4)c3C2)c1", "unit.label": "%", "cytotoxicity at 10 µM": 12.8}
{"compound": "Cc1cnn(CCNCC(=O)NCCOc2ccc(Cl)cc2)c1", "unit.label": "%", "cytotoxicity at 10 µM": -11.8}
{"compound": "c1ncn(CC2CCCN2Cc2csc(C3CCCCC3)n2)n1 (centres undefined)", "unit.label": "%", "cytotoxicity at 10 µM": 1.77}
{"compound": "Cc1ccc(CN2C[C@@H]3COC[C@H](NS(C)(=O)=O)[C@@H]3C2)s1", "unit.label": "%", "cytotoxicity at 10 µM": 0.354}
{"compound": "CNC(=O)C1Cn2ccnc2C2(CCN(Cc3cccnc3)CC2)O1 (centres undefined)", "unit.label": "%", "cytotoxicity at 10 µM": -3.37}
{"compound": "CN1CCC(N2CCOC3(CCCC3)C2)C1=O (centres undefined)", "unit.label": "%", "cytotoxicity at 10 µM": -6.52}
{"compound": "CC(C)c1noc(CCNC(=O)NCC2COc3ccccc3O2)n1 (centres undefined)", "unit.label": "%", "cytotoxicity at 10 µM": 1.03}
{"compound": "CN1CCN(Cc2ccc(F)cc2)Cc2cccnc21", "unit.label": "%", "cytotoxicity at 10 µM": -80.2}
{"compound": "Cc1ccccc1OCC(=O)N1CCN(C2CCOC2=O)CC1 (centres undefined)", "unit.label": "%", "cytotoxicity at 10 µM": -19.3}
{"compound": "Cn1ccc2cc(CC3COCCN(C(=O)c4cccnc4)C3)ccc21 (centres undefined)", "unit.label": "%", "cytotoxicity at 10 µM": 7.24}
{"compound": "C=Cn1ncc(CN2C[C@@H]3CCCN3C[C@@H]2Cc2ccccc2)c1C", "unit.label": "%", "cytotoxicity at 10 µM": -5.74}
{"compound": "CCn1ccnc1C1CCN(c2ncnc3ccsc23)CC1", "unit.label": "%", "cytotoxicity at 10 µM": 5.31}
{"compound": "COCC(NC1CCN(CC(C)C)CC1)c1ccnn1C (centres undefined)", "unit.label": "%", "cytotoxicity at 10 µM": 4.22}
{"compound": "CC(Cn1cccn1)NC(=O)N(C)Cc1cnn(C)c1 (centres undefined)", "unit.label": "%", "cytotoxicity at 10 µM": -5.17}
{"compound": "Cc1nc(C2CCCNC2)cc(N(Cc2nccn2C)C2CC2)n1 (centres undefined)", "unit.label": "%", "cytotoxicity at 10 µM": -3.42}
{"compound": "Cc1cc(C)n(CC2CCCCN2CC(=O)NC2CCOCC2)n1 (centres undefined)", "unit.label": "%", "cytotoxicity at 10 µM": -9.01}
{"compound": "Cc1ncc(C(=O)N2CCOC(C(=O)N3CCCCC3)C2)c(C)n1 (centres undefined)", "unit.label": "%", "cytotoxicity at 10 µM": 1.14}
{"compound": "Cc1ccc(CN2CC(O)CN(C(=O)C3CC3)CC2=O)cc1 (centres undefined)", "unit.label": "%", "cytotoxicity at 10 µM": -2.12}
{"compound": "CC(C)OC(=O)CCNC(=O)Nc1cccc2ncccc12", "unit.label": "%", "cytotoxicity at 10 µM": 1.03}
{"compound": "CC(C)(C)c1nc(CN2CCOC(Cn3cccn3)C2)no1 (centres undefined)", "unit.label": "%", "cytotoxicity at 10 µM": -18.5}
{"compound": "COc1cc(CNCC(O)c2ccc(C)cc2)cc2c1OCCO2 (centres undefined)", "unit.label": "%", "cytotoxicity at 10 µM": -6.61}
{"compound": "COc1ccc2c(c1)C1(CCN(Cc3cccnc3)CC1)N(C)CC2", "unit.label": "%", "cytotoxicity at 10 µM": -161}
{"compound": "CCCOC1CCCN(Cc2nc(-c3cccs3)oc2C)C1 (centres undefined)", "unit.label": "%", "cytotoxicity at 10 µM": -53.1}
{"compound": "c1cc(CN2CCCC(c3ccnc4nccn34)C2)ccn1 (centres undefined)", "unit.label": "%", "cytotoxicity at 10 µM": -3.29}
{"compound": "CC(=O)N1[C@H](Cn2cncn2)C[C@@H]2CN(CC3CC3)CC[C@@H]21", "unit.label": "%", "cytotoxicity at 10 µM": -3.64}
{"compound": "CCOC(=O)Cn1ccc(O)c(Cc2ccc(Cl)cc2Cl)c1=O", "unit.label": "%", "cytotoxicity at 10 µM": 4.19}
